- target-or-test-system: UniProt P30518
- Sequence (P30518 whole entry): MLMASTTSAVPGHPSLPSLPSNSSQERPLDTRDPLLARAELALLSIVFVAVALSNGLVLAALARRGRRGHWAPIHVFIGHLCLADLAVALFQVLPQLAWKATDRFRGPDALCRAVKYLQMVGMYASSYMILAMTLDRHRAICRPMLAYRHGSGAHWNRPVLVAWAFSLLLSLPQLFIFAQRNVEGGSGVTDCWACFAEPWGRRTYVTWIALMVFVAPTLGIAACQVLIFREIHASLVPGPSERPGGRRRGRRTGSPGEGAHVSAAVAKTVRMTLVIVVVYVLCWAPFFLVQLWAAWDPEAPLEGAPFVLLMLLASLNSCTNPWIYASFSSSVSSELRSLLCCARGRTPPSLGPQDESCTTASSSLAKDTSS
- assay-procedure: Cellular in vitro test for determination of the vasopressin receptor activity (aequorin luminescence, CHO cells), human V2
- particulars: cell line transfected with the human V2 receptor, antagonism of [Arg8]-vasopressin, read-out: IC50 hV2
measured-attribute: IC50 (nM)

# count of solved cases: 4
- compound: "O=C(Cn1nc(-c2ccc(Cl)cc2)n(C2CC2)c1=O)NC1(Cc2ccccc2C(F)(F)F)CC1"
  IC50 / nM: 1520
- compound: "COc1ccc(Cn2c(-c3ccc(Cl)cc3)nn(CC(=O)NC(C)(C)c3cccc(C(F)(F)F)c3)c2=O)cc1"
  IC50 / nM: 9
- compound: "Cc1csc(-c2nn(CC(=O)NCc3cccc(C(F)(F)F)c3)c(=O)n2CC(C)C)c1Cl"
  IC50 / nM: 576
- compound: "O=C(Cn1nc(-c2ccc(Cl)cc2)n(Cc2ccccc2F)c1=O)NCc1cccc(C(F)(F)F)c1Cl"
  IC50 / nM: 9

1: CC(C)(NC(=O)Cn1cc(-c2ccc(Cl)cc2)n(CC(O)C(F)(F)F)c1=O)c1cccc(C(F)(F)F)c1 (single isomer, unassigned)
2: O=C(Cn1nc(-c2ccc(Cl)cc2)n(Cc2ccccc2F)c1=O)NCc1cccc(C(F)(F)F)c1
3: COCCn1c(-c2ccc(Cl)cc2)nn(CC(=O)NCC2(c3ccccc3F)CCCC2)c1=O
Q. Order field: IC50 | Direction: descending (largest first) Your answer should be the labels, listed in the requested order.
A. 3, 2, 1
